target: human adenosine A2A receptor (Homo sapiens); construct: expressed in transfected cells; host or cells: CHO cells, Semliki Forest virus expression system; washed membrane pellet used; assay: [3H]-SCH-58261 binding assay on membranes of CHO cells expressing the human adenosine A2A receptor; conditions: [3H]-SCH-58261 (1 nM) displacement, CHO cell membranes, SPA beads, 1 hour at room temperature; Ki by Cheng-Prussoff equation; read-out: hA2 (pKi) (converted)
The reader will find reported Ki values listed item by item below.
Units required after the number.

Here are 3 compounds together with their reported answers.
- CCN(C(C)=O)c1ccc(OC)c2nc(NC(=O)c3ccc(F)cc3)sc12: 10 nM
- COCCN(C)c1ccc(OC)c2nc(NC(=O)c3ccccc3)sc12: 52.5 nM
- COc1ccc(N(Cc2ccccc2)C(C)=O)c2sc(NC(=O)c3ccnc(Br)c3)nc12: 52.5 nM

Exam item: What value of Ki has been reported for the following compound? `COc1ccc(N(Cc2ccccc2)C(C)=O)c2sc(NC(=O)c3ccc(F)cc3)nc12`
Marked response: 10.7 nM

Exam item: What value of Ki has been reported for the following compound? `COc1ccc(N(C)C)c2sc(NC(=O)c3ccc(F)cc3)nc12`
Marked response: 74.1 nM

Exam item: What value of Ki has been reported for the following compound? `COCCN(C)c1ccc(OC)c2nc(NC(=O)c3ccc(F)cc3)sc12`
Marked response: 38 nM

Exam item: What value of Ki has been reported for the following compound? `COCCN(C)c1ccc(OC)c2nc(NC(=O)c3ccc(CCl)cc3)sc12`
Marked response: 37.2 nM

Exam item: What value of Ki has been reported for the following compound? `COc1ccc(CN(C)c2ccc(OC)c3nc(NC(=O)c4ccnc(C)c4)sc23)cc1`
Marked response: 26.3 nM

* * *

biological target: human adenosine A2A receptor (Homo sapiens, UniProt P29274); construct: expressed in transfected cells; host or cells: CHO cells, Semliki Forest virus expression system; washed membrane pellet used; test: [3H]-SCH-58261 binding assay on membranes of CHO cells expressing the human adenosine A2A receptor; conditions: [3H]-SCH-58261 (1 nM) displacement, CHO cell membranes, SPA beads, 1 hour at room temperature; Ki by Cheng-Prussoff equation; read-out: hA2 (pKi) (converted)
Sequence (P29274 whole entry): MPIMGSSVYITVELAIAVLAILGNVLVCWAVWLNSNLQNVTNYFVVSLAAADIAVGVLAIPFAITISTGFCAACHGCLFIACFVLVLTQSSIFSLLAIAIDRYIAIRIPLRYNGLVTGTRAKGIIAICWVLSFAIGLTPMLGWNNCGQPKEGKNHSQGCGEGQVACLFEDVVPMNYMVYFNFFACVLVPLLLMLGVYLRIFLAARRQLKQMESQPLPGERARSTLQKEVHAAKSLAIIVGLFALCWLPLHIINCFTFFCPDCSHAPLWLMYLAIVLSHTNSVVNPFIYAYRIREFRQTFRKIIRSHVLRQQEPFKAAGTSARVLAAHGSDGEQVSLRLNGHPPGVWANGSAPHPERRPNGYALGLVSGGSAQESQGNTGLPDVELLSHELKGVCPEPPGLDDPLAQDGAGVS
The threshold is 0.03 µM. Values of Ki beneath it are tagged Yes; values meeting or exceeding it are tagged No.

Illustrative cases are given below, each with its answer.
* COc1ccc(CN(C)c2ccc(OC)c3nc(NC(=O)c4ccc(F)cc4)sc23)cc1 [Example 28] | No
* COc1ccc(N(C)Cc2ccccc2)c2sc(NC(=O)c3ccnc(C)c3)nc12 [Example 16] | Yes
* COc1ccc(N(C)Cc2ccccc2)c2sc(NC(=O)c3ccc(F)cc3)nc12 [Example 14] | No
* COc1ccc(N(Cc2ccc(C)cc2)C(C)=O)c2sc(NC(=O)c3ccccc3)nc12 [Example 10] | Yes
* COc1ccc(N(C)Cc2ccccc2)c2sc(NC(=O)c3ccnc(N4CCOCC4)c3)nc12 [Example 35] | Yes

Exam item: I'd appreciate it if you could check whether COc1ccc(N(C)C2CCOCC2)c2sc(NC(=O)c3ccc(F)cc3)nc12 [Example 37] has Ki smaller than 0.03 µM.
Marked response: No

Exam item: I'd appreciate it if you could check whether COc1ccc(N(C)Cc2ccccn2)c2sc(NC(=O)c3ccc(F)cc3)nc12 [Example 15] has Ki smaller than 0.03 µM.
Marked response: No

Exam item: I'd appreciate it if you could check whether COc1ccc(N(C)Cc2ccccc2)c2sc(NC(=O)c3ccnc(Br)c3)nc12 [Example 32] has Ki smaller than 0.03 µM.
Marked response: No

Exam item: I'd appreciate it if you could check whether COc1ccc(N(C)CC(=O)N(C)C)c2sc(NC(=O)c3ccc(F)cc3)nc12 [Example 17] has Ki smaller than 0.03 µM.
Marked response: No

Exam item: I'd appreciate it if you could check whether COCCN(C)c1ccc(OC)c2nc(NC(=O)c3ccnc(N4CCOCC4)c3)sc12 [Example 6] has Ki smaller than 0.03 µM.
Marked response: No

Exam item: I'd appreciate it if you could check whether COc1ccc(N(C)C(C)=O)c2sc(NC(=O)c3ccc(F)cc3)nc12 [Example 19] has Ki smaller than 0.03 µM.
Marked response: Yes

Exam item: I'd appreciate it if you could check whether COCCN(C(C)=O)c1ccc(OC)c2nc(NC(=O)c3ccc(F)cc3)sc12 [Example 26] has Ki smaller than 0.03 µM.
Marked response: Yes

Exam item: I'd appreciate it if you could check whether CCN(CC(=O)N(C)C)c1ccc(OC)c2nc(NC(=O)c3ccc(F)cc3)sc12 [Example 20] has Ki smaller than 0.03 µM.
Marked response: No

FYI, the data here is from patent US6713499B2.
